# Test system: Staphylococcus aureus
# Assay Summary: Antimicrobial activity against Staphylococcus aureus H1 after 24 hrs
# Assay type: functional
Readout Kind: MIC (µg/mL)

CCNC(=S)N/N=C/C=C/c1ccc([N+](=O)[O-])o1 :: 16
CNC(=S)N/N=C/C=C/c1ccc([N+](=O)[O-])o1 :: 16
CC(C)NC(=S)N/N=C/C=C/c1ccc([N+](=O)[O-])o1 :: 256
CC(C)NC(=S)N/N=C/c1ccc([N+](=O)[O-])o1 :: 128
CNC(=S)N/N=C/c1ccc([N+](=O)[O-])o1 :: 64
CC(C)(C)NC(=S)N/N=C/C=C/c1ccc([N+](=O)[O-])o1 :: 64
CCNC(=S)N/N=C/c1ccc([N+](=O)[O-])o1 :: 16

* * *

# Test system: Clostridioides difficile
# Assay Summary: Antimicrobial activity against Clostridium difficile O27 after 48 hrs
# Assay type: functional
Readout Kind: MIC (µg/mL)

CC(C)(C)NC(=S)N/N=C/C=C/c1ccc([N+](=O)[O-])o1 :: 64
CC(C)(C)NC(=S)N/N=C/C=C/c1ccco1 :: 64
CCNC(=S)N/N=C/C=C/c1ccco1 :: 64
CNC(=S)N/N=C/C=C/c1ccco1 :: 64
CNC(=S)N/N=C/c1ccc([N+](=O)[O-])o1 :: 64
CC(C)NC(=S)N/N=C/C=C/c1ccc([N+](=O)[O-])o1 :: 64
CCNC(=S)N/N=C/C=C/c1ccc([N+](=O)[O-])o1 :: 8
CC(C)NC(=S)N/N=C/C=C/c1ccco1 :: 64
CNC(=S)N/N=C/C=C/c1ccc([N+](=O)[O-])o1 :: 32
CCNC(=S)N/N=C/c1ccc([N+](=O)[O-])o1 :: 64
CN[C@H](CC(C)C)C(=O)N[C@H]1C(=O)N[C@@H](CC(N)=O)C(=O)N[C@H]2C(=O)N[C@H]3C(=O)N[C@H](C(=O)N[C@H](C(=O)O)c4cc(O)cc(O)c4-c4cc3ccc4O)[C@H](O)c3ccc(c(Cl)c3)Oc3cc2cc(c3O[C@@H]2O[C@H](CO)[C@@H](O)[C@H](O)[C@H]2O[C@H]2C[C@](C)(N)[C@H](O)[C@H](C)O2)Oc2ccc(cc2Cl)[C@H]1O :: 0.75
CC(C)NC(=S)N/N=C/c1ccc([N+](=O)[O-])o1 :: 64

* * *

Reported values of MIC for individual entries
# Tested on: Cutibacterium acnes
# Assay Summary: Antimicrobial activity against Propionibacterium acnes C5 after 48 hrs
# Type: functional
Readout Kind: MIC (µg/mL)

CC(C)NC(=S)N/N=C/C=C/c1ccc([N+](=O)[O-])o1 :: 64
CCNC(=S)N/N=C/C=C/c1ccco1 :: 32
CC(C)NC(=S)N/N=C/c1ccc([N+](=O)[O-])o1 :: 64
CNC(=S)N/N=C/c1ccc([N+](=O)[O-])o1 :: 64
CNC(=S)N/N=C/C=C/c1ccco1 :: 1
CC(C)(C)NC(=S)N/N=C/C=C/c1ccco1 :: 1
CC(C)NC(=S)N/N=C/C=C/c1ccco1 :: 64
CC(C)(C)NC(=S)N/N=C/C=C/c1ccc([N+](=O)[O-])o1 :: 16
CCNC(=S)N/N=C/c1ccc([N+](=O)[O-])o1 :: 32
CCNC(=S)N/N=C/C=C/c1ccc([N+](=O)[O-])o1 :: 32
CNC(=S)N/N=C/C=C/c1ccc([N+](=O)[O-])o1 :: 64
CC(C)(C)NC(=S)N/N=C/c1ccc([N+](=O)[O-])o1 :: 16
